# TESTED_TARGET: African swine fever virus major capsid protein p72 (p72 capsomer, trimer) (African swine fever virus, UniProt P22776)
# PROTOCOL_DETAILS: SPR
MEASURED_ATTRIBUTE: Kd (µM)
Give a bare numeral; the unit µM is implied.

Look over these answered cases.
porcine antibody F11 (class II) (Fab, V domains shown) VH: EEKLVESGGGLVKPGGSLKLSCVGSGSTFSSDAVSWVRQAPGKGLEWLAGIDGDGYGVSTYYADSVKGRFTISRDNSQKTAYLQMNSLRTDDTARYYCAECPMVLLAKCSMEFWGPGVEVVVSS VL: QTVIQEPAMSVSLGGTVTLTCAFSSGSVTSSNYPGWFQQTPGQPPRLLIYQTNSRPTGVPSRFSGAISGNRAALTITGAQAEDEADYFCGLWKSGTDLPFGGGTHLTVL | 0.00913
porcine antibody G6 (class IV) (Fab, V domains shown) VH: EVKLVESGGGLVQPGGSLTLSCVGSGYTFSSYPICWVRQAPGKGLEWLSCIDSSGSKMHLADSVLSRFTISKDNSQNTAYLQMNSLRTEDTARYYCARGRWCYGVICDMDLWGPGVEVVVSS VL: IVLTQTPLSLSVSPGEPASISCRSSQSLEEYGKNWLSWYQQKPGQSPRLLIYQATNRASWVPERFSGSGSGTDFTLKISRVEAEDAGVYYCQQYKEFPWTFGQGTKLELK | 1.92

Could you now consider this next binder?
Data point: porcine antibody F5 (class II) (antibody, V domains shown) VH: EEKLVESGGGLVKPGGSLKLSCVGSGSTFSSDAVSWVRQAPGKGLEWLAGIDGDGYGVSTYYADSVKGRFTISRDNSQKTAYLQMNSLRTDDTARYYCAECPMVLLAKCSMEFWGPGVEVVVSS VL: QTVIQEPAMSVSPGGTVTLTCAFSSGSVTTRNYPSWFQQTPGQPPRLLIGRTNNRPTGVPSRFSGVISGNKAALVITGAQANDEATYFCSLYSPDTIIFGSGTHLTVL ; Kd = 3.16
